I'd appreciate it if you could supply hERG values for the items below.
# Measured target: hERG channels (Homo sapiens, UniProt Q12809)
# Construct: host or cells: CHO cell line stably expressing hERG
# Sequence (Q12809 whole entry): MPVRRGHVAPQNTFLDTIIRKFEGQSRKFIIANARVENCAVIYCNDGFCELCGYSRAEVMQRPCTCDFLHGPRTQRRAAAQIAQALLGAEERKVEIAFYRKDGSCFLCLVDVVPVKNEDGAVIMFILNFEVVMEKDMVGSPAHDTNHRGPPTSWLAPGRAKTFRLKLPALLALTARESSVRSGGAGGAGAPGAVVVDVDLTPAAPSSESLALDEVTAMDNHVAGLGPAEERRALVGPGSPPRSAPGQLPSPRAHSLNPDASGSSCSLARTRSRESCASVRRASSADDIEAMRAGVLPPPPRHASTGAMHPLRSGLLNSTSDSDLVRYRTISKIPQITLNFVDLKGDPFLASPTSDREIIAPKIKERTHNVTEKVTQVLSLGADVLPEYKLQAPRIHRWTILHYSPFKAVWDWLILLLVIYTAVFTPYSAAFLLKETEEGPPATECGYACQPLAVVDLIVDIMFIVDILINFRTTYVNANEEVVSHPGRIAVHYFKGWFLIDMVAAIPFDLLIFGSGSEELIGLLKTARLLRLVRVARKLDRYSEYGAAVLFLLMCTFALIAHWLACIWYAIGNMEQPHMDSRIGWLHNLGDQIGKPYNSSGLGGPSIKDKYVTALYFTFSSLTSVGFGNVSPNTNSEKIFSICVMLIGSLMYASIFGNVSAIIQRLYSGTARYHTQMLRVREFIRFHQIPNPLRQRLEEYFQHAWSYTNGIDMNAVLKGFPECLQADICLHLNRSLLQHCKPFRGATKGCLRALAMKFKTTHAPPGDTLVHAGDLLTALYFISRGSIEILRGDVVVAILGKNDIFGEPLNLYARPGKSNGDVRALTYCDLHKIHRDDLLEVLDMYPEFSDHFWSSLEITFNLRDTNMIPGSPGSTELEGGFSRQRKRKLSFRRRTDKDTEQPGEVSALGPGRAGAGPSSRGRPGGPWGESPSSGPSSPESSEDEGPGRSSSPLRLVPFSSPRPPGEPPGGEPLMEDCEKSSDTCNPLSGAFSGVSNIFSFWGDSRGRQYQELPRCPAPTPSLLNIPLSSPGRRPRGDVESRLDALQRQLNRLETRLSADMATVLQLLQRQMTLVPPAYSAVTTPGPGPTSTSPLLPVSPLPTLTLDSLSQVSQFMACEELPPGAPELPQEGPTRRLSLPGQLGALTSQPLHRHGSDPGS
# Experiment notes: hERG assay, whole cell recordings in CHO cell line stably expressing hERG channels
# Type: cell-based
# Setup conditions: CHO cells, whole cell patch clamp; greater than values indicate the maximum achievable concentration in the assay

Look up and report measured hERG for this entry: Cc1cc(/C=C/C#N)cc(C)c1-c1cccc2c(N)nc(Nc3ccc(C#N)nn3)nc12 [Compound 11]
>3 µM

Look up and report measured hERG for this entry: Cc1cc(/C=C/C#N)cc(C)c1-c1cccc2c(N)nc(Nc3cnc(C#N)cn3)nc12 [Compound 12]
>3 µM

Look up and report measured hERG for this entry: Cc1cc(/C=C/C#N)cc(C)c1-c1cccc2c(=O)[nH]c(Nc3ccc(C#N)cn3)nc12 [Compound 34]
>3 µM

Look up and report measured hERG for this entry: Cc1cc(/C=C/C#N)cc(C)c1Nc1ccnc(Nc2ccc(C#N)cc2)n1 [Rilpivirine, reference compound]
0.5 µM

Look up and report measured hERG for this entry: Cc1cc(/C=C/C#N)cc(C)c1-c1cccc2c(N)nc(Nc3ccc(C#N)cn3)nc12 [Compound 10]
>3 µM

Look up and report measured hERG for this entry: Cc1cc(/C=C/C#N)cc(C)c1-c1cccc2c(N)nc(Nc3ccc(C#N)cc3)nc12 [Compound 2]
>1 µM

Look up and report measured hERG for this entry: Cc1cc(/C=C/C#N)cc(C)c1-c1cccc2cnc(Nc3ccc(C#N)cn3)nc12 [Compound 13]
1.3 µM

Look up and report measured hERG for this entry: Cc1cc(/C=C/C#N)cc(C)c1-c1cccc2c(N)nc(Nc3ccc(C#N)nc3)nc12 [Compound 9]
>3 µM

###

I'd appreciate it if you could supply FC against mutant K103N values for the items below.
# Test system: HIV-1 reverse transcriptase mutant K103N
# Experiment notes: High throughput cytopathic effect assay in MT-4 cells, K103N mutant
# Format: cell-based
# Setup conditions: fold change of MT4 EC50 versus w.t. assay 2
Respond numerically, and do not add a unit to the figure.

Look up and report measured FC against mutant K103N for this entry: N#C/C=C/c1cc(F)c(-c2cccc3cnc(Nc4ccc(C#N)cc4)nc23)c(F)c1 [Compound 5]
1.7

Look up and report measured FC against mutant K103N for this entry: N#C/C=C/c1cc(F)c(-c2cccc3c(N)nc(Nc4ccc(C#N)cc4)nc23)c(F)c1 [Compound 8]
1.3

Look up and report measured FC against mutant K103N for this entry: Cc1cc(/C=C/C#N)cc(C)c1-c1cc(Br)cc2c(N)nc(Nc3ccc(C#N)cc3)nc12 [Compound 25]
1.6

Look up and report measured FC against mutant K103N for this entry: CC(C#N)=Cc1cc(C)c(-c2cccc3c(N)nc(Nc4ccc(C#N)cc4)nc23)c(C)c1 (racemic) [Compound 40]
1.7

Look up and report measured FC against mutant K103N for this entry: Cc1cc(/C=C/C#N)cc(C)c1-c1cccc2cnc(Nc3ccc(C#N)cc3)nc12 [Compound 1]
1.4

Look up and report measured FC against mutant K103N for this entry: O=C1Nc2ccc(Cl)cc2[C@@](C#CC2CC2)(C(F)(F)F)O1 [Efavirenz, reference compound]
28.9

Look up and report measured FC against mutant K103N for this entry: Cc1cc(/C=C/C#N)cc(C)c1-c1cccc2c(N)nc(Nc3ccc(C#N)cc3)nc12 [Compound 2]
1.1

Look up and report measured FC against mutant K103N for this entry: COc1cc(-c2c(C)cc(/C=C/C#N)cc2C)c2nc(Nc3ccc(C#N)cn3)nc(N)c2c1 [Compound 24]
1.2

Look up and report measured FC against mutant K103N for this entry: Cc1cc(/C=C/C#N)cc(C)c1-c1cccc2c(N)nc(Nc3ccc(C#N)cn3)nc12 [Compound 10]
1.0

Look up and report measured FC against mutant K103N for this entry: COc1ccc(-c2c(C)cc(/C=C/C#N)cc2C)c2nc(Nc3ccc(C#N)cc3)nc(N)c12 [Compound 28]
1.6

Look up and report measured FC against mutant K103N for this entry: COc1cc(/C=C/C#N)cc(OC)c1-c1cccc2cnc(Nc3ccc(C#N)cc3)nc12 [Compound 33]
2.1

Look up and report measured FC against mutant K103N for this entry: Cc1cc(/C=C/C#N)cc(C)c1-c1cccc2c(=O)[nH]c(Nc3ccc(C#N)cn3)nc12 [Compound 34]
1.0

Look up and report measured FC against mutant K103N for this entry: COc1cc(/C=C/C#N)cc(OC)c1-c1cccc2c(N)nc(Nc3ccc(C#N)cc3)nc12 [Compound 32]
1.2

Look up and report measured FC against mutant K103N for this entry: Cc1cc(Nc2nc(N)c3cccc(-c4c(C)cc(/C=C/C#N)cc4C)c3n2)nc(C)c1C#N [Compound 15]
2.2

Look up and report measured FC against mutant K103N for this entry: Cc1cc(/C=C/C#N)cc(C)c1-c1cc(F)cc2c(N)nc(Nc3cnc(C#N)cn3)nc12 [Compound 26]
1.2

Look up and report measured FC against mutant K103N for this entry: Cc1cc(Nc2nc(N)c3cccc(-c4c(C)cc(/C=C/C#N)cc4C)c3n2)ncc1C#N [Compound 18]
0.9

Look up and report measured FC against mutant K103N for this entry: COc1cc(Nc2nc(N)c3cccc(-c4c(C)cc(/C=C/C#N)cc4C)c3n2)ccc1C#N [Compound 3]
0.9

Look up and report measured FC against mutant K103N for this entry: Cc1cc(/C=C/C#N)cc(C)c1-c1cccc2c(N)nc(Nc3cnc(C#N)cn3)nc12 [Compound 12]
0.9

###

# Tested on: HIV-1 reverse transcriptase mutant K103N
# Experiment notes: High throughput cytopathic effect assay in MT-4 cells, K103N mutant
# Assay type: cell-based
# Setup conditions: fold change of MT4 EC50 versus w.t. assay 2
Observed property: FC against mutant K103N
Respond numerically, and do not add a unit to the figure.

GET FC against mutant K103N where system = HIV-1 reverse transcriptase mutant K103N and item = Cc1cc(/C=C/C#N)cc(C)c1-c1cc(F)cc2c(N)nc(Nc3ccc(C#N)nn3)nc12
1.4

GET FC against mutant K103N where system = HIV-1 reverse transcriptase mutant K103N and item = Cc1cc(/C=C/C#N)cc(C)c1-c1cccc2c(=O)[nH]c(Nc3ccc(C#N)cc3)nc12
1.6

GET FC against mutant K103N where system = HIV-1 reverse transcriptase mutant K103N and item = Cc1cc(C#N)cnc1Nc1nc(N)c2cccc(-c3c(C)cc(/C=C/C#N)cc3C)c2n1
0.8

GET FC against mutant K103N where system = HIV-1 reverse transcriptase mutant K103N and item = Cc1cc(/C=C/C#N)cc(C)c1Nc1ccnc(Nc2ccc(C#N)cc2)n1 [Rilpivirine, reference compound]
1.2

###

I'd appreciate it if you could supply FC against mutant K103N values for the items below.
# Test system: HIV-1 reverse transcriptase mutant K103N
# Experiment notes: High throughput cytopathic effect assay in MT-4 cells, K103N mutant
# Format: cell-based
# Setup conditions: fold change of MT4 EC50 versus w.t. assay 2
Respond numerically, and do not add a unit to the figure.

Look up and report measured FC against mutant K103N for this entry: Cc1cc(/C=C/C#N)cc(C)c1-c1cccc2cnc(Nc3ccc(C#N)cn3)nc12
1.4

Look up and report measured FC against mutant K103N for this entry: CNc1nc(Nc2ccc(C#N)cn2)nc2c(-c3c(C)cc(/C=C/C#N)cc3C)cccc12
2.1

Look up and report measured FC against mutant K103N for this entry: Cc1cc(/C=C/C#N)cc(C)c1-c1cc(F)cc2cnc(Nc3ccc(C#N)cc3)nc12
2.0

Look up and report measured FC against mutant K103N for this entry: CCc1cc(/C=C/C#N)cc(CC)c1-c1cccc2c(N)nc(Nc3ccc(C#N)cc3)nc12
1.0

###

# Tested on: HIV-1 recombinant strain encoding reverse transcriptase mutation Y181C
# Experiment notes: Resistance profile against HIV-1 RT mutants in MT-2 cells, Y181C
# Type: cell-based
# Setup conditions: ratio of mean EC50 mutant/WT virus
Criterion: Biology resistance panel-low throughput fold change (FC) Y181C strictly under 6. Met: met. Not met: not met.

Dear colleague, could you confirm whether Biology resistance panel-low throughput fold change (FC) Y181C of Cc1cc(/C=C/C#N)cc(C)c1-c1cccc2c(N)nc(Nc3ccc(C#N)cc3)nc12 falls below 6? Thanks.
met

Dear colleague, could you confirm whether Biology resistance panel-low throughput fold change (FC) Y181C of Cc1cc(/C=C/C#N)cc(C)c1-c1cccc2c(N)nc(Nc3ccc(C#N)nn3)nc12 falls below 6? Thanks.
not met

Dear colleague, could you confirm whether Biology resistance panel-low throughput fold change (FC) Y181C of Cc1cc(/C=C/C#N)cc(C)c1-c1cccc2c(N)nc(Nc3ccc(C#N)nc3)nc12 falls below 6? Thanks.
met

Dear colleague, could you confirm whether Biology resistance panel-low throughput fold change (FC) Y181C of Cc1cc(/C=C/C#N)cc(C)c1Nc1ccnc(Nc2ccc(C#N)cc2)n1 [Rilpivirine, reference compound] falls below 6? Thanks.
met

Dear colleague, could you confirm whether Biology resistance panel-low throughput fold change (FC) Y181C of Cc1ccnc2c1NC(=O)c1cccnc1N2C1CC1 [Nevirapine, reference compound] falls below 6? Thanks.
not met

Dear colleague, could you confirm whether Biology resistance panel-low throughput fold change (FC) Y181C of Cc1cc(/C=C/C#N)cc(C)c1-c1cccc2c(=O)[nH]c(Nc3ccc(C#N)cn3)nc12 falls below 6? Thanks.
met

Dear colleague, could you confirm whether Biology resistance panel-low throughput fold change (FC) Y181C of O=C1Nc2ccc(Cl)cc2[C@@](C#CC2CC2)(C(F)(F)F)O1 [Efavirenz, reference compound] falls below 6? Thanks.
met

Dear colleague, could you confirm whether Biology resistance panel-low throughput fold change (FC) Y181C of Cc1cc(/C=C/C#N)cc(C)c1-c1cccc2c(N)nc(Nc3ccc(C#N)cn3)nc12 falls below 6? Thanks.
not met

Dear colleague, could you confirm whether Biology resistance panel-low throughput fold change (FC) Y181C of Cc1cc(/C=C/C#N)cc(C)c1-c1cccc2cnc(Nc3ccc(C#N)cc3)nc12 falls below 6? Thanks.
met

Dear colleague, could you confirm whether Biology resistance panel-low throughput fold change (FC) Y181C of Cc1cc(/C=C/C#N)cc(C)c1-c1cc(F)cc2cnc(Nc3ccc(C#N)cc3)nc12 falls below 6? Thanks.
met

Dear colleague, could you confirm whether Biology resistance panel-low throughput fold change (FC) Y181C of N#C/C=C/c1cc(F)c(-c2cccc3cnc(Nc4ccc(C#N)cc4)nc23)c(F)c1 falls below 6? Thanks.
not met

Dear colleague, could you confirm whether Biology resistance panel-low throughput fold change (FC) Y181C of COc1cc(Nc2nc(N)c3cccc(-c4c(C)cc(/C=C/C#N)cc4C)c3n2)ccc1C#N falls below 6? Thanks.
met
